Kindly state Aortic Ring contraction Emax (%), maximum efficacy at 10^-5.5 M for each of the entries shown.
- Experimental System: T1, UT receptor present in rat aortic ring (rat, UniProt P49684 1-386)
- T1 sequence (looked up): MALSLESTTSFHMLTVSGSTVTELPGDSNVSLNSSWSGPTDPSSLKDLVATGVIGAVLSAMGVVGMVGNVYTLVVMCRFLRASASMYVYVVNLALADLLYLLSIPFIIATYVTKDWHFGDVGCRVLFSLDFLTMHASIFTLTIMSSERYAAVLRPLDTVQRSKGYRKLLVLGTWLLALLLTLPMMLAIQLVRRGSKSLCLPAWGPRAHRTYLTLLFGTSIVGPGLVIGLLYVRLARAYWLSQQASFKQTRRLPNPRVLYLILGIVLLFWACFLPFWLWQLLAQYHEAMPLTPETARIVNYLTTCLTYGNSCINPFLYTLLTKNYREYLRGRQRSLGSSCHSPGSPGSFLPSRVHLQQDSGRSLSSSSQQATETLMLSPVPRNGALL
- Measurement Notes: cell-based or functional assay
Bridge positions count the residues as written; N and C are the ends. Square brackets hold non-standard residues; d marks the D form. Ends that are not written are not given here. Dip = N[C@H](C(=O)O)C(c1ccccc1)c1ccccc1; Phe(4-I) = N[C@@H](Cc1ccc(I)cc1)C(=O)O; d1Nal = N[C@H](Cc1cccc2ccccc12)C(=O)O; Tic = O=C(O)[C@@H]1Cc2ccccc2CN1; Cha = N[C@@H](CC1CCCCC1)C(=O)O

Worked cases, answers included:
binder="ACF[Tic]KYCV-OH (disulfide 2-7) [[Tic^4]URP]" assay_result="43 % of KCl (40 mM) contraction"
binder="ACF[d1Nal]KYCV (disulfide 2-7, also called compound 4; [D-Nal^4]URP) [[D-1-Nal^4]URP]" assay_result="34 % of KCl (40 mM) contraction"
binder="H-ACF[Cha]KYCV-OH (disulfide 2-7) [[Cha^4]URP]" assay_result="77 % of KCl (40 mM) contraction"
binder="H-ACF[Dip]KYCV-OH (disulfide 2-7) [[Dip^4]URP]" assay_result="23 % of KCl (40 mM) contraction"

Note: attention shifts to another entry.
Look up and report measured Aortic Ring contraction Emax (%), maximum efficacy at 10^-5.5 M for this entry: H-ACF[Phe(4-I)]KYCV-OH (disulfide 2-7, H-Ala-Cys-Phe-Phe(I)-Lys-Tyr-Cys-Val-OH; also called compound 5; [para-iodo-Phe^4]URP) [[Phe(I)^4]URP]
92 % of KCl (40 mM) contraction

Where do these numbers come from? They come from patent US20140113872A1.
